# Method: Pharmacokinetic analyses, oral once daily for 10 days
# Condition parameters: male, C57BL/6J, mouse, plasma, po, 5 mg/kg
Observable: AUC
Please report the result as a number followed by the unit.

C#C[C@@](C)(c1ccc(Cl)cc1)c1csc(NC(=O)c2c(F)cc(N3CCNCC3)cc2F)n1 (stereo in doubt) yielded AUC of 3940 ng·h/mL

* * *

# Method: Pharmacokinetic analyses, oral once daily for 10 days
# Condition parameters: male, C57BL/6J, mouse, plasma, oral, 5 mg/kg, DF-003 Conc. in plasma, 5 mg/kg; 24 hours after 10th dosing; individual animals
Observable: concentration at 24 h
Please report the result as a number followed by the unit.

C#C[C@@](C)(c1ccc(Cl)cc1)c1csc(NC(=O)c2c(F)cc(N3CCNCC3)cc2F)n1 (stereo in doubt) yielded concentration at 24 h of 45.6 ng/mL

* * *

# Method: Pharmacokinetic analyses, oral once daily for 10 days
# Condition parameters: male, C57BL/6J, mouse, plasma, po, 5 mg/kg
Observable: Vd/F (L/kg)
Respond numerically; units are L/kg and should not be typed.

C#C[C@@](C)(c1ccc(Cl)cc1)c1csc(NC(=O)c2c(F)cc(N3CCNCC3)cc2F)n1 (stereo in doubt) yielded Vd/F of 16.5

* * *

# Method: Pharmacokinetic analyses, oral once daily for 10 days
# Condition parameters: male, C57BL/6J, mouse, plasma, oral, 3 mg/kg, DF-003 Conc. in plasma, 3 mg/kg; 6 hours after 10th dosing; individual animals
Observable: concentration at 6 h (ng/mL)
Respond numerically; units are ng/mL and should not be typed.

C#C[C@@](C)(c1ccc(Cl)cc1)c1csc(NC(=O)c2c(F)cc(N3CCNCC3)cc2F)n1 (stereo in doubt) [DF-003] yielded concentration at 6 h of 92

* * *

# Method: Pharmacokinetic analyses, oral once daily for 10 days
# Condition parameters: male, C57BL/6J, mouse, plasma, oral, 3 mg/kg, DF-003 Conc. in plasma, 3 mg/kg; 4 hours after 10th dosing; individual animals
Observable: concentration at 4 h (ng/mL)
Respond numerically; units are ng/mL and should not be typed.

C#C[C@@](C)(c1ccc(Cl)cc1)c1csc(NC(=O)c2c(F)cc(N3CCNCC3)cc2F)n1 (stereo in doubt) [DF-003] yielded concentration at 4 h of 115

* * *

# Target of assay: TAOK2/TAO1 (Homo sapiens)
# Sequence (Q9UL54 whole entry): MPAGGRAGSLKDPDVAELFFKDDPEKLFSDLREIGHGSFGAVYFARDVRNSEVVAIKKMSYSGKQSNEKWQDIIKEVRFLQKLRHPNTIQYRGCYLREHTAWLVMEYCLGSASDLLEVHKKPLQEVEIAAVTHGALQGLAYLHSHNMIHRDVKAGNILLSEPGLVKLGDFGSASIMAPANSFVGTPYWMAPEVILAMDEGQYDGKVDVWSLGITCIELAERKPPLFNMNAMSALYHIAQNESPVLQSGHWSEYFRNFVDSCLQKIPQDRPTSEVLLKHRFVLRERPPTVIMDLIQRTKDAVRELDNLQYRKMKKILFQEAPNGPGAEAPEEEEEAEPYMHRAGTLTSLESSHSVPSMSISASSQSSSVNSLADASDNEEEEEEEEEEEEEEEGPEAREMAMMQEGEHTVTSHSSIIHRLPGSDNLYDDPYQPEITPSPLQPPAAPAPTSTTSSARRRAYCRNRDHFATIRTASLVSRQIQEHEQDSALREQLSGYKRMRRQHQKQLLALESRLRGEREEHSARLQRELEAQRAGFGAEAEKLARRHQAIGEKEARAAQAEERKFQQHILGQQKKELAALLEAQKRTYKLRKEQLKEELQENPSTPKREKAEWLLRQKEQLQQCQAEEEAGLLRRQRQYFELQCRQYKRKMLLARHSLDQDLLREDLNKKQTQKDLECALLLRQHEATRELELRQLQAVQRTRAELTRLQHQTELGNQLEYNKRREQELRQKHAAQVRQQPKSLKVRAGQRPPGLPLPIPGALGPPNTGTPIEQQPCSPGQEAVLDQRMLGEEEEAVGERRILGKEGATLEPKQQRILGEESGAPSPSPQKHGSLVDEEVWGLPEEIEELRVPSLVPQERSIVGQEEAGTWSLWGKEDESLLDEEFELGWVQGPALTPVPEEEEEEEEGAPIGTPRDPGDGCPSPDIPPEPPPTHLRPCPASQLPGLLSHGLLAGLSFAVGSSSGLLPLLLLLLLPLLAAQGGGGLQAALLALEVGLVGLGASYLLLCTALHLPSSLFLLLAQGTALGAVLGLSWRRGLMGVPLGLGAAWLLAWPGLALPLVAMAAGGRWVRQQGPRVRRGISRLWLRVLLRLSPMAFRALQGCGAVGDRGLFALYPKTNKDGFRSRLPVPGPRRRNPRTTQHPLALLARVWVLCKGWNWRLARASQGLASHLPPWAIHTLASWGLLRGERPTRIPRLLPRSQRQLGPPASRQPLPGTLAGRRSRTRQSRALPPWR
# Method: HotSpot kinase assay
# Condition parameters: IC50, 10-dose, ATP 10 µM
Observable: IC50 (nM)
Respond numerically; units are nM and should not be typed.

C#C[C@@](C)(c1ccc(Cl)cc1)c1csc(NC(=O)c2c(F)cc(N3CCNCC3)cc2F)n1 (stereo in doubt) yielded IC50 of 1290

* * *

# Method: Pharmacokinetic analyses, oral once daily for 10 days
# Condition parameters: male, C57BL/6J, mouse, plasma, oral, 5 mg/kg, DF-003 Conc. in plasma, 5 mg/kg; 4 hours after 10th dosing; individual animals
Observable: concentration at 4 h (ng/mL)
Respond numerically; units are ng/mL and should not be typed.

C#C[C@@](C)(c1ccc(Cl)cc1)c1csc(NC(=O)c2c(F)cc(N3CCNCC3)cc2F)n1 (stereo in doubt) yielded concentration at 4 h of 238

* * *

# Target of assay: ALPK1 (Homo sapiens)
# Method: TR-FRET (HTRF) kinase assay
# Condition parameters: read-out: IC50 in TR-FRET assay; 6.25 µM ATP, 20 nM ADP-D-heptose
Observable: IC50 (µM)
Respond numerically; units are µM and should not be typed.

COc1ccc(OC)c2sc(NC(=O)c3c(F)cccc3F)nc12
11

The reported ALPK1 (Homo sapiens) IC50 of `Nc1nc(C2(c3ccccc3)CCCC2)cs1` is 4

* * *

# Method: Pharmacokinetic analyses, oral once daily for 10 days
# Condition parameters: male, C57BL/6J, mouse, plasma, oral, 5 mg/kg, DF-003 Conc. in plasma, 5 mg/kg; 1 hour after 10th dosing; individual animals
Observable: concentration at 1 h (ng/mL)
Respond numerically; units are ng/mL and should not be typed.

C#C[C@@](C)(c1ccc(Cl)cc1)c1csc(NC(=O)c2c(F)cc(N3CCNCC3)cc2F)n1 (stereo in doubt) yielded concentration at 1 h of 228

* * *

# Method: Pharmacokinetic analyses, oral once daily for 10 days
# Condition parameters: male, C57BL/6J, mouse, plasma, po, 5 mg/kg
Observable: CL/F (mL/min/kg)
Respond numerically; units are mL/min/kg and should not be typed.

C#C[C@@](C)(c1ccc(Cl)cc1)c1csc(NC(=O)c2c(F)cc(N3CCNCC3)cc2F)n1 (stereo in doubt) [DF-003] yielded CL/F of 21.6

* * *

# Method: Pharmacokinetic analyses, oral once daily for 10 days
# Condition parameters: male, C57BL/6J, mouse, plasma, oral, 3 mg/kg, DF-003 Conc. in plasma, 3 mg/kg; 2 hours after 10th dosing; individual animals
Observable: concentration at 2 h

C#C[C@@](C)(c1ccc(Cl)cc1)c1csc(NC(=O)c2c(F)cc(N3CCNCC3)cc2F)n1 (stereo in doubt) yielded concentration at 2 h of 123 ng/mL

* * *

# log10 IC50 listing for each entry below
# Target of assay: ALPK1 (Homo sapiens, UniProt Q96QP1)
# Sequence (Q96QP1 whole entry): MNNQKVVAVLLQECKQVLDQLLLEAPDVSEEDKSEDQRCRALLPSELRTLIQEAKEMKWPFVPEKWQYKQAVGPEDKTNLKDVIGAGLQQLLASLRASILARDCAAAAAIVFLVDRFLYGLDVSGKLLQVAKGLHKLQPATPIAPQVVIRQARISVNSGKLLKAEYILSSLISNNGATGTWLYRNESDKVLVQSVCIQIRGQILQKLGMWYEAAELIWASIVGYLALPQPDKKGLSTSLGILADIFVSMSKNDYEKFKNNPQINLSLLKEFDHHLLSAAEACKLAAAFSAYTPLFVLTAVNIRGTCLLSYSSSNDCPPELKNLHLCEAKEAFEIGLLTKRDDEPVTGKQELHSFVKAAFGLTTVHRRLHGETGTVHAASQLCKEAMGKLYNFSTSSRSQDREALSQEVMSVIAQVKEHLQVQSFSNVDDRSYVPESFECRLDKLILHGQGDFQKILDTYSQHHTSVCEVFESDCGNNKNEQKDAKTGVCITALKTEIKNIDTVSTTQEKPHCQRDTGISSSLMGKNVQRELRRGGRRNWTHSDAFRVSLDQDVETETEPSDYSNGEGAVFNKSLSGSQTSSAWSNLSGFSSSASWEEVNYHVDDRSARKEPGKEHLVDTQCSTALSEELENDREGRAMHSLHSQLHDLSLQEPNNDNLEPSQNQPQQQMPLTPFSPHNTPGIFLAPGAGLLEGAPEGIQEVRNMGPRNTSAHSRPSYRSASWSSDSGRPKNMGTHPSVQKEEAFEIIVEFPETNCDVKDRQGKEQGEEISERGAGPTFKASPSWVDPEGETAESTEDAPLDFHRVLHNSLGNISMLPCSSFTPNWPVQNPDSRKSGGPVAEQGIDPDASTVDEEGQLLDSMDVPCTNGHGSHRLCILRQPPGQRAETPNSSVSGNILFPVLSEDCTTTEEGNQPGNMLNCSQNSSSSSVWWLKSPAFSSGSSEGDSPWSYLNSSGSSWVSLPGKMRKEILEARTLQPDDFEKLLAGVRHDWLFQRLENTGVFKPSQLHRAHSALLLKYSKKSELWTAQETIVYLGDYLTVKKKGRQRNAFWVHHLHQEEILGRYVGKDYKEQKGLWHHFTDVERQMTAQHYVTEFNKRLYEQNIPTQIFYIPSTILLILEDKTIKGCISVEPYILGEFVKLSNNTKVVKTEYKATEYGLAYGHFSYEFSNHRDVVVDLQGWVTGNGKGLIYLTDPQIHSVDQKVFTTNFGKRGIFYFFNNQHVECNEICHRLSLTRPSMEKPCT
# Method: TR-FRET (HTRF) kinase assay
# Condition parameters: read-out: HTRF Assay (IC50); 6.25 µM ATP, 20 nM ADP-D-heptose
Use the decimal logarithm of IC50 (nM).

# example entries with known answers
CC(C)(c1ccc(F)cc1)c1csc(NC(=O)c2c(F)cc(N3CCNCC3)cc2F)n1
1.36
CC(c1ccc(Cl)cc1)(c1csc(NC(=O)c2c(F)cc(N3CCNCC3)cc2F)n1)C1CC1 (centres unmarked)
1.40
CC(c1ccc(Cl)cc1)c1csc(NC(=O)c2c(F)cc(N3CCNCC3)cc2F)n1 (centres unmarked)
2.43
C#CC(C)(c1ccc(Br)cc1)c1csc(NC(N)=O)n1 (centres unmarked)
2.11
C#CC(C)(c1ccc(F)cc1)c1csc(NC(=O)c2c(F)cc(N3CCNCC3)cc2F)n1 (centres unmarked)
1.15
O=C(NCc1ccc(N2CCNCC2)cc1)Nc1nc(C(CO)c2ccc(Br)cc2)cs1 (centres unmarked)
3.75
CC(C)(c1ccc(I)cc1)c1csc(NC(=O)NCc2ccc(N3CCNCC3)cc2)n1
2.45
C#CC(C)(c1ccc(Cl)cc1)c1csc(NC(=O)c2c(F)cc(N3CCN(C)CC3)cc2F)n1 (centres unmarked)
2.63

The reported ALPK1 (Homo sapiens, UniProt Q96QP1) log10 IC50 of `COc1cccc2sc(NC(=O)c3c(F)cc(NCCN(C)C)cc3F)nc12` is 2.71

The reported ALPK1 (Homo sapiens, UniProt Q96QP1) log10 IC50 of C#CC(CC)(c1ccc(Cl)cc1)c1csc(NC(=O)c2c(F)cc(N3CCNCC3)cc2F)n1 (centres unmarked) is 1.92

The reported ALPK1 (Homo sapiens, UniProt Q96QP1) log10 IC50 of `COc1ccc(C(C)(C)c2csc(NC(=O)NCc3ccc(N4CCNCC4)cc3)n2)cc1` is 2.09

The reported ALPK1 (Homo sapiens, UniProt Q96QP1) log10 IC50 of COCC(C)(c1ccc(Cl)cc1)c1csc(NC(=O)NCCO)n1 (centres unmarked) is 2.75

The reported ALPK1 (Homo sapiens, UniProt Q96QP1) log10 IC50 of CC(c1ccccc1)(c1ccc(Cl)cc1)c1csc(NC(=O)c2c(F)cc(N3CCNCC3)cc2F)n1 (centres unmarked) is 2.76

The reported ALPK1 (Homo sapiens, UniProt Q96QP1) log10 IC50 of C#CC(C)(c1ccc(Cl)cc1)c1csc(NC(=O)c2c(F)ccc(OC)c2F)n1 (centres unmarked) is 3.19

The reported ALPK1 (Homo sapiens, UniProt Q96QP1) log10 IC50 of COc1cccc2sc(NC(=O)c3c(F)cc(N4CCNC(C)C4)cc3F)nc12 (centres unmarked) is 2.54

The reported ALPK1 (Homo sapiens, UniProt Q96QP1) log10 IC50 of CCOCC(C)(c1ccccc1)c1csc(NC(=O)c2c(F)cc(N3CCNCC3)cc2F)n1 (centres unmarked) is 2.81

The reported ALPK1 (Homo sapiens, UniProt Q96QP1) log10 IC50 of COc1cccc2sc(NC(=O)c3c(F)cc(N4CCC(O)C4)cc3F)nc12 (centres unmarked) is 3.50

* * *

# Method: Pharmacokinetic analyses, oral once daily for 10 days
# Condition parameters: male, C57BL/6J, mouse, plasma, oral, 5 mg/kg, DF-003 Conc. in plasma, 5 mg/kg; 12 hours after 10th dosing; individual animals
Observable: concentration at 12 h
Please report the result as a number followed by the unit.

C#C[C@@](C)(c1ccc(Cl)cc1)c1csc(NC(=O)c2c(F)cc(N3CCNCC3)cc2F)n1 (stereo in doubt) yielded concentration at 12 h of 122 ng/mL

* * *

# Method: Pharmacokinetic analyses, oral once daily for 10 days
# Condition parameters: male, C57BL/6J, mouse, plasma, oral, 3 mg/kg, DF-003 Conc. in plasma, 3 mg/kg; 12 hours after 10th dosing; individual animals
Observable: concentration at 12 h (ng/mL)
Respond numerically; units are ng/mL and should not be typed.

C#C[C@@](C)(c1ccc(Cl)cc1)c1csc(NC(=O)c2c(F)cc(N3CCNCC3)cc2F)n1 (stereo in doubt) [DF-003] yielded concentration at 12 h of 73.9

The reported measurements were obtained from paper PMC12420824.
